Below, each entry is listed with its recorded MIC.
# Test system: methicillin-resistant Staphylococcus aureus (MRSA)
# method-description: Determination of MIC values (BHI broth, 96 well microtiter plate)
# Assay type: cell-based
# settings: Staphylococcus aureus, MRSA; BHI broth, overnight 37° C.; read-out: MIC MRSA

> print(dat)
                                   compound  experimental.result
1  Cn1cc(-c2cc(C(=O)NCC3CCC(CN)CC3)c3cc(I)ccc3n2)c2cc(Br)ccc21 (stereo not shown)            < 7 µg/mL
2  NCC1CCC(CNC(=O)c2cc(-c3c[nH]c4ccc(Br)cc34)nc3cc(I)ccc23)CC1 (stereo not shown)            < 7 µg/mL
3  NCc1ccc(CNC(=O)c2cc(-c3c[nH]c4ccc(Br)cc34)nc3cc(I)ccc23)cc1            < 7 µg/mL

Switching to the query record.
Endpoint output: MIC of Clc1ccc2[nH]cc(-c3cc(Cl)c4ccccc4n3)c2c1 . Value?
< 7 µg/mL
